test: pKa value was determined; type: physicochemical
Attribute Measured: pKa

{"columns": ["Compound", "Attribute Measured", "Numeric Value"],
 "data": [
  ["CC(C)(N)C(=O)N[C@@H]1CCc2ccccc2N(Cc2ccc(-c3ccccc3-c3nn[nH]n3)cc2)C1=O", "pKa", 7.9],
  ["CC(C)(N)CC(=O)N[C@@H]1CCc2ccccc2N(Cc2ccc(-c3ccccc3-c3nnn[nH]3)cc2)C1=O", "pKa", 9.3],
  ["C[C@@H](O)CNC(C)(C)CC(=O)N[C@@H]1CCc2ccccc2N(Cc2ccc(-c3ccccc3-c3nnn[nH]3)cc2)C1=O [L-692585]", "pKa", 9.1]
]}
